Origin of the recorded values: patent US20250074911A1

Measured on: BTK T316A (Homo sapiens (Human), UniProt Q06187, T316A)
Sequence (Q06187 whole entry T316A): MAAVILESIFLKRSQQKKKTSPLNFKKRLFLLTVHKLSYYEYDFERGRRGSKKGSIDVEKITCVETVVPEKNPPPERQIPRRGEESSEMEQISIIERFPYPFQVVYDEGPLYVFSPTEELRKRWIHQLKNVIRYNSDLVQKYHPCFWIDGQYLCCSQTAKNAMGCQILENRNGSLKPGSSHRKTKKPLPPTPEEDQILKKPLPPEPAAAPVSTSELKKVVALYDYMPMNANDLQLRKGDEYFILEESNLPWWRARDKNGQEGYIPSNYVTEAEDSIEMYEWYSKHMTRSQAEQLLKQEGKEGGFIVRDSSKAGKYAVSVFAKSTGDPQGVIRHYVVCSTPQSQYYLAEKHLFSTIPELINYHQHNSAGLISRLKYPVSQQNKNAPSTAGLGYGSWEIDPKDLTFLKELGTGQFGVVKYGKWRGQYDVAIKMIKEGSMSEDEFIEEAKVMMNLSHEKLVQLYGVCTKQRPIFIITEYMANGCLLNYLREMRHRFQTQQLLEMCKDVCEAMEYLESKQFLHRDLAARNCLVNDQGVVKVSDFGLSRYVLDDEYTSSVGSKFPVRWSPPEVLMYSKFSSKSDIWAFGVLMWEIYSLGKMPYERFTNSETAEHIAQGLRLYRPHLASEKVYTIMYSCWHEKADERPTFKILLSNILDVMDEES
Method: Binding kinetics measurements (Surface Plasmon Resonance) on BTK T316A
Protocol conditions: target residence time, SPR
Quantity kind: Tau (h) BTK T316A (Act)
Report the figure in h without appending any unit label.

Solved cases below.
| Molecule | Quantity kind | Assay result |
| --- | --- | --- |
| Nc1ncc2c3c1c(-c1ccc(C(=O)Nc4cc(C(F)(F)F)ccn4)cc1)nn3[C@@H]1CC[C@H](C1)NC(=O)CCOC/C=C/2 | Tau (h) BTK T316A (Act) | 1.58 |
| Nc1ncc2c3c1c(-c1ccc(C(=O)Nc4cc(C(F)(F)F)ccn4)cc1)nn3[C@@H]1CC[C@H](C1)NC(=O)[C@@H]1CCN1CC/C=C/2 | Tau (h) BTK T316A (Act) | 4.98 |
| Nc1ncc2c3c1c(-c1ccc(C(=O)Nc4cc(C(F)(F)F)ccn4)cc1)nn3[C@@H]1CCC[C@H](C1)C(=O)NCCCCC/C=C\C2 [Example 89b] | Tau (h) BTK T316A (Act) | 3.12 |
| C[C@H]1OC/C=C/c2cnc(N)c3c(-c4ccc(C(=O)Nc5cc(C(F)(F)F)ccn5)cc4)nn(c23)[C@@H]2CCC[C@H](C2)NC1=O | Tau (h) BTK T316A (Act) | 1.43 |
| C[C@@H]1CC(=O)N[C@@H]2CCC[C@H](C2)n2nc(-c3ccc(C(=O)Nc4cc(C#N)ccn4)cc3)c3c(N)ncc(c32)/C=C/CCO1 | Tau (h) BTK T316A (Act) | 7.64 |

Find the measured Tau (h) BTK T316A (Act) of "C[C@@H]1CCn2nc(-c3ccc(C(=O)Nc4cc(C(F)(F)F)ccn4)cc3)c3c(N)ncc(c32)/C=C/COCC(=O)N1" with BTK T316A (Homo sapiens (Human), UniProt Q06187, T316A) as test system. 1.46

Find the measured Tau (h) BTK T316A (Act) of "Nc1ncc2c3c1c(-c1ccc(C(=O)Nc4cc(C(F)(F)F)ccn4)cc1)nn3[C@@H]1CCC[C@H](C1)NC(=O)CCNC/C=C/2" with BTK T316A (Homo sapiens (Human), UniProt Q06187, T316A) as test system. 3.89

---

The reader will find pIC50 measurements below, all made with UniProt:Q06187.
pIC50: −log10 of the molar value.

Solved cases below.
| Compound | Measured on | Assay result |
| --- | --- | --- |
| Nc1ncc2c3c1c(-c1ccc(C(=O)Nc4ccccn4)cc1)nn3[C@@H]1CCC[C@H](C1)NC(=O)CCCC/C=C/2 | UniProt:Q06187 | > 8.30 |
| C[C@@H]1CCn2nc(-c3ccc(C(=O)Nc4cc(C(F)(F)F)ccn4)cc3)c3c(N)ncc(c32)/C=C/CCCCCCC(=O)N1 | UniProt:Q06187 | > 8.30 |
| Nc1ncc2c3c1c(-c1ccc(C(=O)Nc4cc(C(F)(F)F)ccn4)cc1)nn3[C@@H]1CCC[C@H](C1)NC(=O)CCCCCC2 | UniProt:Q06187 | > 8.30 |
| Nc1ncc2c3c1c(-c1ccc(C(=O)Nc4ccccn4)cc1)nn3[C@@H]1CCC[C@H](C1)C(=O)NCCCC/C=C/C2 [Example 87a] | UniProt:Q06187 | 6.30 to 7.30 |

Determine from records and report pIC50 for "Nc1ncc2c3c1c(-c1ccc(C(=O)Nc4cc(C(F)(F)F)ccn4)cc1)nn3[C@@H]1CCC[C@H](C1)NC(=O)CCC/C=C/2" > 8.30

Determine from records and report pIC50 for "Nc1ncc2c3c1c(-c1ccc(C(=O)Nc4cc(C(F)(F)F)ccn4)cc1)nn3[C@@H]1CCC[C@H](C1)NC(=O)CCCCC/C=C/2" > 8.30

Determine from records and report pIC50 for "COc1ccc(F)cc1C(=O)NCc1ccc(-c2nn3c4c(cnc(N)c24)/C=C/CCCCCC(=O)N[C@@H]2CCC[C@@H]3C2)cc1" > 8.30

Determine from records and report pIC50 for "Nc1ncc2c3c1c(-c1ccc(C(=O)Nc4cc(C(F)(F)F)ccn4)cc1)nn3[C@@H]1CCC[C@H](C1)NC(=O)COCC/C=C/2" > 8.30

Determine from records and report pIC50 for Nc1ncc2c3c1c(-c1ccc(C(=O)Nc4cc(C(F)(F)F)ccn4)cc1)nn3[C@@H]1CCC[C@H](C1)NC(=O)CCCC/C=C/C2 [Example 98a] 6.30 to 7.30

---

Measured on: full-length BTK C481S enzyme (Homo sapiens (Human), UniProt Q06187, C481S)
Sequence (Q06187 whole entry C481S): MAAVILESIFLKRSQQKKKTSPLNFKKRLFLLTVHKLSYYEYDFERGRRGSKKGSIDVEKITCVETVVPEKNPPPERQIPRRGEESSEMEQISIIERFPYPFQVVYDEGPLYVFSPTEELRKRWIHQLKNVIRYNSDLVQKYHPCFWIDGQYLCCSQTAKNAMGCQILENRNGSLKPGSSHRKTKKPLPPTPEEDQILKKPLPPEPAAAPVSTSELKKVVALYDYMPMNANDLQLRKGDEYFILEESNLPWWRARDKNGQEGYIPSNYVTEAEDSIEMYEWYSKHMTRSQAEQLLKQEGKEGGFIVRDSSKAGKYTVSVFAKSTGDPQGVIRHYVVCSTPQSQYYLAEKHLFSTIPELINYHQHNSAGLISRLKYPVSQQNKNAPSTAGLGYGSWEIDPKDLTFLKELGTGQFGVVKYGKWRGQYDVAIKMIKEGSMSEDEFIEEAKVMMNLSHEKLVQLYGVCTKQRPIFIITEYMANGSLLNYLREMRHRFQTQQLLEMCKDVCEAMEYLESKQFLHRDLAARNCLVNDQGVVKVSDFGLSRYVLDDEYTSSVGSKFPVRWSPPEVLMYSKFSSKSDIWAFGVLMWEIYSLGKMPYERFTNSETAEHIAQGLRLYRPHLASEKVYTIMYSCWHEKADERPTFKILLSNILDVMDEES
Method: Biochemical kinase assay BTK C481S (IMAP)
Quantity kind: IC50

Solved cases below.
| Compound | Assay result |
| --- | --- |
| CN1C/C=C/c2cnc(N)c3c(-c4ccc(C(=O)Nc5cc(C(F)(F)F)ccn5)cc4)nn(c23)[C@@H]2CCC[C@H](C2)NC(=O)C1 [Example 9] | < 5 nM |
| C[C@@H]1CCn2nc(-c3ccc(C(=O)Nc4cc(C(F)(F)F)ccn4)cc3)c3c(N)ncc(c32)/C=C/CN(C)CCCC(=O)N1 [Example 66] | < 5 nM |
| Nc1ncc2c3c1c(-c1ccc(C(=O)Nc4cc(C(F)(F)F)ccn4)cc1)nn3[C@@H]1CCC[C@H](C1)NC(=O)CCCC[C@@H](O)/C=C/2 [Example 12] | < 5 nM |
| CN1C/C=C/c2cnc(N)c3c(-c4ccc(C(=O)Nc5cc(C(F)(F)F)ccn5)cc4)nn(c23)[C@@H]2CCC[C@H](C2)NC(=O)CCCC1 [Example 20] | < 5 nM |
| Nc1ncc2c3c1c(-c1ccc(C(=O)Nc4ccccn4)cc1)nn3[C@@H]1CCC[C@H](C1)NC(=O)CCCCC2 [Example 124] | 50 to 500 nM |

// next entry
Determine from records and report IC50 for C[C@@H]1CCn2nc(-c3ccc(C(=O)Nc4cc(C(F)(F)F)ccn4)cc3)c3c(N)ncc(c32)/C=C/CCOCC(=O)N1 [Example 59] < 5 nM

---

Measured on: BTK T474S (Homo sapiens (Human), UniProt Q06187, T474S)
Sequence (Q06187 whole entry T474S): as the sequence (Q06187 whole entry T316A) above, with A316T, T474S counted along it
Method: Binding kinetics measurements (Surface Plasmon Resonance) on BTK T474S
Protocol conditions: SPR binding kinetics, BTK T474S; read-out: Tau (h) BTK T474S (Act); target residence time (converted)
Assign 1 (yes) to entries whose residence time meets or exceeds 4 h; assign 0 (no) to the rest.

Look over these answered cases.
| Compound | Label |
| --- | --- |
| Nc1ncc2c3c1c(-c1ccc(C(=O)Nc4cc(C(F)(F)F)ccn4)cc1)nn3[C@@H]1CCC[C@H](C1)NC(=O)CCC/C=C/2 | 0 (no) |
| Nc1ncc2c3c1c(-c1ccc(C(=O)Nc4cc(C(F)(F)F)ccn4)cc1)nn3[C@@H]1CCC[C@H](C1)NC(=O)COC/C=C/2 | 1 (yes) |

Does residence time meet or surpass 4 h for "Nc1ncc2c3c1c(-c1ccc(C(=O)Nc4cc(C(F)(F)F)ccn4)cc1)nn3[C@@H]1CCC[C@H](C1)NC(=O)CCCC[C@H](O)/C=C/2" ? 1 (yes)

Does residence time meet or surpass 4 h for "Nc1ncc2c3c1c(-c1ccc(C(=O)Nc4cc(C(F)(F)F)ccn4)cc1)nn3[C@@H]1CCC[C@H](C1)NC(=O)CCNCC/C=C/2" ? 1 (yes)

---

The reader will find Kd measurements below, all made with wt-BTK (Homo sapiens (Human), UniProt Q06187).
Sequence (Q06187 whole entry): as the sequence (Q06187 whole entry T316A) above, with A316T counted along it

Solved cases below.
| Compound | Measured on | Kd |
| --- | --- | --- |
| Nc1ncc2c3c1c(-c1ccc(C(=O)Nc4cc(C(F)(F)F)ccn4)cc1)nn3[C@@H]1CCC[C@H](C1)NC(=O)CCCCC/C=C/2 [Example 46] | wt-BTK (Homo sapiens (Human), UniProt Q06187) | < 5 nM |
| Nc1ncc2c3c1c(-c1ccc(C(=O)Nc4cc(C(F)(F)F)ccn4)cc1F)nn3[C@@H]1CCC[C@H](C1)NC(=O)CCC/C=C/2 [Example 7] | wt-BTK (Homo sapiens (Human), UniProt Q06187) | < 5 nM |

Determine from records and report Kd for Nc1ncc2c3c1c(-c1ccc(C(=O)Nc4ccccn4)cc1)nn3[C@@H]1CCC[C@H](C1)C(=O)NCCCC/C=C\C2 [Example 87b] < 5 nM

---

pIC50 values by entry
Measured on: full-length wt-BTK enzyme (Homo sapiens (Human))
Sequence (Q06187 whole entry): as the sequence (Q06187 whole entry T316A) above, with A316T counted along it
pIC50: −log10 of the molar value.

Solved cases below.
| Compound | Quantity kind | Assay result |
| --- | --- | --- |
| C[C@@H]1CNC(=O)[C@@H]2CCC[C@H](C2)n2nc(-c3ccc(C(=O)Nc4cc(C(F)(F)F)ccn4)cc3)c3c(N)ncc(c32)/C=C/CO1 [Example 149] | pIC50 | > 8.30 |
| Nc1ncc2c3c1c(-c1ccc(C(=O)Nc4cc(C(F)(F)F)ccn4)cc1)nn3[C@@H]1CCC[C@H](C1)C(=O)NCCCC/C=C/C2 [Example 85a] | pIC50 | 7.30 to 8.30 |
| Nc1ncc2c3c1c(-c1ccc(C(=O)Nc4ccccn4)cc1)nn3[C@@H]1CCC[C@H](C1)NC(=O)CCC/C=C\C2 [Example 99b] | pIC50 | 7.30 to 8.30 |
| COc1ccc(F)cc1C(=O)NCc1ccc(-c2nc3n4c(cnc(N)c24)/C=C/CCNCC(=O)N[C@@H]2CC[C@@H]3C2)cc1 [Example 219] | pIC50 | > 8.30 |
| Nc1ncc2c3c1c(-c1ccc(C(=O)Nc4cc(C(F)(F)F)ccn4)cc1)nn3[C@@H]1CCC[C@H](C1)C(=O)NCC/C=C\C2 [Example 86] | pIC50 | 7.30 to 8.30 |
| Nc1ncc2c3c1c(-c1ccc(C(=O)Nc4ccccn4)cc1)nn3[C@@H]1CCC[C@H](C1)NC(=O)CC/C=C\C2 [Example 96b] | pIC50 | 7.30 to 8.30 |

Determine from records and report pIC50 for Cc1ccnc(NC(=O)c2ccc(-c3nc4n5c(cnc(N)c35)/C=C/CCOCCC(=O)N[C@@H]3CC[C@@H]4C3)cc2)c1 [Example 215] > 8.30

Determine from records and report pIC50 for Nc1ncc2c3c1c(-c1ccc(C(=O)Nc4cc(C(F)(F)F)ccn4)cc1)nn3[C@@H]1CCC[C@H](C1)NC(=O)CCNCC/C=C/2 [Example 33] > 8.30

Determine from records and report pIC50 for CN1CCC/C=C/c2cnc(N)c3c(-c4ccc(C(=O)Nc5cc(C(F)(F)F)ccn5)cc4)nn(c23)[C@@H]2CCC[C@H](C2)NC(=O)C1 [Example 41] > 8.30

Determine from records and report pIC50 for CC(=O)N1CC/C=C/c2cnc(N)c3c(-c4ccc(C(=O)Nc5cc(C(F)(F)F)ccn5)cc4)nc(n23)[C@@H]2CC[C@H](C2)NC(=O)C1 [Example 220] > 8.30

Determine from records and report pIC50 for C[C@H]1CC(=O)N[C@@H]2CCCC(C2)n2nc(-c3ccc(C(=O)Nc4cc(C(F)(F)F)ccn4)cc3)c3c(N)ncc(c32)/C=C/CCN1 [Example 150] > 8.30

Determine from records and report pIC50 for Nc1ncc2c3c1c(-c1ccc(C(=O)Nc4cc(C(F)(F)F)ccn4)cc1)nn3[C@@H]1CCC[C@H](C1)NC(=O)CNCCCC2 [Example 127] > 8.30

Determine from records and report pIC50 for C[C@@H]1CCn2nc(-c3cnn(Cc4ccccc4)c3)c3c(N)ncc(c32)/C=C/CCCCCC(=O)N1 [Example 171] 6.30 to 7.30

Determine from records and report pIC50 for C[C@@H]1CCn2nc(-c3ccc(C(=O)Nc4cc(C(F)(F)F)ccn4)cc3)c3c(N)ncc(c32)C/C=C\CCCC(=O)N1 [Example 109a] 7.30 to 8.30

Determine from records and report pIC50 for C[C@@H]1C[C@@H](C)n2nc(-c3ccc(C(=O)Nc4cc(C(F)(F)F)ccn4)cc3)c3c(N)ncc(c32)/C=C/CCCCCC(=O)N1 [Example 172] > 8.30
